Form field: cell proliferation (one value per entry).
# Tested on: U2932 TK216-resistant clone 3
# Assay Comment: cell proliferation relative to vehicle (% of vehicle); higher = less growth inhibition
# Experimental Context: 500 nM; 72 h
Structures can show the parent of a compound that is named as a salt.
Lab note: record the figure alone, no unit after it.

# get_value(readout='cell proliferation', item= COc1ccc(-c2ccc3ncc4c(c3c2)n(-c2ccc(N3CCNCC3)c(C(F)(F)F)c2)c(=O)n4C)cn1 )
0.399

Same again, this time with CC(C)n1c(/C=C/C(O)CC(O)CC(=O)O)c(-c2ccc(F)cc2)c2ccccc21 (stereo not drawn) [Fluvastatin Sodium]
102

Then this compound: O=C1c2c(O)ccc(O)c2C(=O)c2c(NCCNCCO)ccc(NCCNCCO)c21 [Mitoxantrone]
15

Now the compound COc1ccc(F)c(F)c1C(=O)c1cnc(NC2CCN(S(C)(=O)=O)CC2)nc1N
66.7

Same again, this time with O=c1[nH]c(=O)n([C@H]2C[C@H](O)[C@@H](CO)O2)cc1F
72.5

Okay, and Cc1cc(CS(=O)(=O)c2ccccc2)cc(OCc2ccc(CN3CCC[C@@H]3CO)cc2)c1 ?
97.9

Subsequent entry: O=C(/C=C\n1cnc(-c2cc(C(F)(F)F)cc(C(F)(F)F)c2)n1)NNc1cnccn1
57.6

What do you have for CC[C@@]1(O)C(=O)OCc2c1cc1n(c2=O)Cc2cc3c(CN(C)C)c(O)ccc3nc2-1 [Topotecan HCl] ?
5.92

---

The following molecules are listed with their measured cell proliferation values.
# System: U2932 TK216-resistant clone 2
# Assay Comment: cell proliferation relative to vehicle (% of vehicle); higher = less growth inhibition
# Experimental Context: 50 nM; 72 h
Structures can show the parent of a compound that is named as a salt.
The answer should be written as a number, with no unit following it.

// worked examples, cell proliferation included
| Molecule | Readout Name | Measured Number |
| --- | --- | --- |
| CS(=O)(=O)c1cccc(CNc2nc(Nc3ccc4c(c3)CCC(=O)N4)ncc2C(F)(F)F)c1 | cell proliferation | 110 |
| COc1nc(OCc2cccc(-c3ccccc3)c2C)ccc1CNCCNC(C)=O | cell proliferation | 95.9 |
| O=C(/C=C\n1cnc(-c2cc(C(F)(F)F)cc(C(F)(F)F)c2)n1)NNc1cnccn1 | cell proliferation | 87.7 |
| CN(C)c1nc(N(C)C)nc(N(C)C)n1 | cell proliferation | 105 |
| CC[C@@]1(O)C(=O)OCc2c1cc1n(c2=O)Cc2cc3c(CN(C)C)c(O)ccc3nc2-1 [Topotecan HCl] | cell proliferation | 9.75 |
| N#CC[C@H](C1CCCC1)n1cc(-c2ncnc3[nH]ccc23)cn1 | cell proliferation | 100 |
| COc1cc2nccc(Oc3ccc(NC(=O)C4(C(=O)Nc5ccc(F)cc5)CC4)cc3)c2cc1OC | cell proliferation | 102 |
| CN(C)CCOc1ccc(-c2nc(-c3ccncc3)c(-c3ccc4c(c3)CC/C4=N\O)[nH]2)cc1 | cell proliferation | 93.3 |
| CC[C@H](Nc1ncnc2[nH]cnc12)c1nc2cccc(F)c2c(=O)n1-c1ccccc1 | cell proliferation | 103 |
| C=CC(=O)N1C/C(=C\c2ccc([N+](=O)[O-])cc2)C(=O)/C(=C/c2ccc([N+](=O)[O-])cc2)C1 | cell proliferation | 31.4 |

Consider the molecule shown here: O=C(/C=C/c1cccc(S(=O)(=O)Nc2ccccc2)c1)NO What is its recorded cell proliferation?
104

Could you do the same for O=c1cc(-c2cccc3c2Sc2ccccc2S3)oc(N2CCOCC2)c1 , please?
108

Same for Cn1c(Nc2ccc(C(F)(F)F)cc2)nc2cc(Oc3ccnc(-c4ncc(C(F)(F)F)[nH]4)c3)ccc21
96.1

Item: O=C(CCCCCCC(=O)Nc1ccccc1)NO [Vorinostat (SAHA, MK0683)]
108

What about this molecule? Cc1csc(-c2nnc(Nc3ccc(Oc4ncccc4-c4ccnc(N)n4)cc3)c3ccccc23)c1
88

Quick one: C[C@]12C=CC(=O)C=C1CC[C@@H]1[C@@H]2C(=O)C[C@@]2(C)[C@H]1CC[C@]2(O)C(=O)CO
95.3

Moving on to C[C@]12CCC(=O)C=C1CC[C@@H]1[C@@H]2[C@@H](O)C[C@@]2(C)[C@H]1CC[C@]2(O)C(=O)CO [Hydrocortisone]
95.7

---

# Tested on: U2932 TK216-resistant clone 3
# Assay Comment: cell proliferation relative to vehicle (% of vehicle); higher = less growth inhibition
# Experimental Context: 500 nM; 72 h
cell proliferation by entry:
Just the number, please.

Please review the following examples before continuing.
| Mol | Subject Of Test | cell proliferation |
| --- | --- | --- |
| C[C@H](NC(=O)/C(C#N)=C/c1cccc(Br)n1)c1ccccc1 | U2932 TK216-resistant clone 3 | 102 |
| N=C1NC(=O)/C(=C/c2ccc(O)cc2)S1 | U2932 TK216-resistant clone 3 | 102 |
| Cc1ccc(F)c(NC(=O)Nc2ccc(-c3cccc4[nH]nc(N)c34)cc2)c1 | U2932 TK216-resistant clone 3 | 95.7 |

Which measured cell proliferation belongs to CN(C)CC[C@H](CSc1ccccc1)Nc1ccc(S(=O)(=O)NC(=O)c2ccc(N3CCN(Cc4ccccc4-c4ccc(Cl)cc4)CC3)cc2)cc1[N+](=O)[O-] , tested on U2932 TK216-resistant clone 3?
37.4

---

# Test system: U2932 TK216-resistant clone 3
# Assay Comment: cell proliferation relative to vehicle (% of vehicle); higher = less growth inhibition
# Experimental Context: 500 nM; 72 h
Counter-ions that a name gives are not always drawn.
Readout Name: cell proliferation
Just the number.

Example cases with answers are listed next.
| Compound | cell proliferation |
| --- | --- |
| CCN(CC)CCCC(C)Nc1ccnc2cc(Cl)ccc12 (centres undefined) [Chloroquine Phosphate] | 111 |
| COc1cc2nccc(Oc3ccc(NC(=O)C4(C(=O)Nc5ccc(F)cc5)CC4)cc3)c2cc1OC | 106 |
| Cc1nc(NC(=O)N2CCC[C@H]2C(N)=O)sc1-c1ccnc(C(C)(C)C(F)(F)F)c1 | 85 |
| Clc1ccc(Nc2nnc(Cc3ccncc3)c3ccccc23)cc1 [Vatalanib (PTK787) 2HCl] | 113 |
| C=CCn1c(=O)c2cnc(Nc3ccc(N4CCN(C)CC4)cc3)nc2n1-c1cccc(C(C)(C)O)n1 | 38.7 |
| COc1cc(Nc2c(C#N)cnc3cc(OCCCN4CCN(C)CC4)c(OC)cc23)c(Cl)cc1Cl [Bosutinib (SKI-606)] | 63.3 |
| CCCCCCCCc1ccc(CCC(N)(CO)CO)cc1 [Fingolimod (FTY720) HCl] | 96.1 |
| CCCCC(C=O)NC(=O)C(CC(C)C)NC(=O)C(CC(C)C)NC(C)=O (centres undefined) | 24.2 |

Now for a further compound.
Can you look up the measured cell proliferation of CN(C)Cc1ccc(S(=O)(=O)n2ccc(/C=C/C(=O)NO)c2)cc1 for me?
90.4

---

Reported cell proliferation values for a set of compounds
# System: U2932 parental
# Assay Comment: cell proliferation relative to vehicle (% of vehicle); higher = less growth inhibition
# Experimental Context: 50 nM; 72 h
Where a name gives a salt, the structure may show the parent alone.

GET /values?readout=cell proliferation&system=U2932 parental&item= O=C(Nc1cccc(Nc2ncc(Br)c(NCCc3cnc[nH]3)n2)c1)N1CCCC1
99.6

Follow-up item: CO[C@H]1/C=C\C=C(/C)C(=O)NC2=CC(=O)C(NCCN(C)C)=C(C[C@@H](C)C[C@H](OC)[C@H](O)[C@@H](C)/C=C(\C)[C@@H]1OC(N)=O)C2=O [17-DMAG (Alvespimycin) HCl]
67

What do we get for CC(C)C[C@H](NC(=O)[C@H](CCc1ccccc1)NC(=O)CN1CCOCC1)C(=O)N[C@@H](Cc1ccccc1)C(=O)N[C@@H](CC(C)C)C(=O)[C@@]1(C)CO1 ?
-1.34

Now the compound O=C(O)c1ccc(Nc2ncc3c(n2)-c2ccc(Cl)cc2C(c2c(F)cccc2F)=NC3)cc1
99.6

Same question for Cc1cn([C@H]2O[C@@H](CO)[C@H](O)[C@H]2F)c(=O)[nH]c1=O please.
98.8

---

# Test system: U2932 parental
# Assay Comment: cell proliferation relative to vehicle (% of vehicle); higher = less growth inhibition
# Experimental Context: 500 nM; 72 h
Readout Name: cell proliferation
Answer as a number with no unit attached.

| Compound | cell proliferation |
| --- | --- |
| C[C@@H](O[C@H]1OCCN(Cc2n[nH]c(=O)[nH]2)[C@H]1c1ccc(F)cc1)c1cc(C(F)(F)F)cc(C(F)(F)F)c1 [Aprepitant] | 98.5 |
| Nc1ccc(C(=O)Nc2cccc(-c3nc(N4CCOCC4)c4oc5ncccc5c4n3)c2)cn1 | 103 |
| Cc1nnc(C(C)C)n1C1C[C@H]2CC[C@@H](C1)N2CC[C@H](NC(=O)C1CCC(F)(F)CC1)c1ccccc1 (stereo in doubt) | 89.6 |
| COc1cccc(-c2cc(F)ccc2C2Cc3nc(N)nc(C)c3C(=O)N2)n1 (stereo unspecified) | 6.37 |
| N#CC[C@H](C1CCCC1)n1cc(-c2ncnc3[nH]ccc23)cn1 | 96.5 |

Kindly review the next compound as well.
Give the measured cell proliferation of O=C(Cc1ccc(-c2ccc(OCCN3CCOCC3)cc2)cn1)NCc1ccccc1 .
9.55

Where these numbers come from: the supplement of paper PMC13172266
